Values were extracted from patent US7732604B2.

TARGET OR TEST SYSTEM: HGFR (Homo sapiens)
Construct: purchased Upstate 14-526
TEST SUMMARY: HGFR continuous-coupled spectrophotometric assay (tyrosine kinase activity on Met-2 substrate peptide)
Assay type: biochemical
ASSAY CONDITIONS: HGFR 50 nM, Met-2 peptide 0.5 mM, ATP 300 μM, 37° C., absorbance 340 nm; read-out: Ki
QUANTITY: log10(Ki) (log10 of the value in nM)

INSERT INTO results (molecule, quantity, reported) VALUES
  ('FC1CCN(C2CCN(c3cnc4nnn(Cc5ccc6ncccc6c5)c4n3)C2)CC1 (stereo not drawn) [Example 147]', 'log10(Ki)', 1.53),
  ('O=C1CCN(c2cnc3nnn(Cc4ccc5ncccc5c4)c3n2)CCN1', 'log10(Ki)', 1.04),
  ('Cc1c(CNc2cnc3nnn(Cc4ccc5ncccc5c4)c3n2)cnn1C', 'log10(Ki)', 1.45),
  ('c1cnc2ccc(Cn3nnc4ncc(N5CC[C@@H](N6CCOCC6)C5)nc43)cc2c1 [Example 153]', 'log10(Ki)', 1.18),
  ('c1cnc2ccc(Cn3nnc4ncc(-c5cnn([C@@H]6CCOC6)c5)nc43)cc2c1', 'log10(Ki)', 1.00),
  ('CC(C)(C)OC(=O)N[C@H]1CCCN(c2cnc3nnn(Cc4ccc5ncccc5c4)c3n2)C1', 'log10(Ki)', 2.76),
  ('OCc1ccc(-c2cnc3nnn(Cc4ccc5ncccc5c4)c3n2)cc1', 'log10(Ki)', 0.30),
  ('CC(C)(CO)Nc1cnc2nnn(Cc3ccc4ncccc4c3)c2n1', 'log10(Ki)', 1.32),
  ('CC(=O)N1CC[C@@H](Nc2cnc3nnn(Cc4ccc5ncccc5c4)c3n2)C1', 'log10(Ki)', 1.20);

====

TARGET OR TEST SYSTEM: HGFR (Homo sapiens, UniProt P08581)
Construct: purchased Upstate 14-526
Sequence (P08581 974-1390 limits assumed): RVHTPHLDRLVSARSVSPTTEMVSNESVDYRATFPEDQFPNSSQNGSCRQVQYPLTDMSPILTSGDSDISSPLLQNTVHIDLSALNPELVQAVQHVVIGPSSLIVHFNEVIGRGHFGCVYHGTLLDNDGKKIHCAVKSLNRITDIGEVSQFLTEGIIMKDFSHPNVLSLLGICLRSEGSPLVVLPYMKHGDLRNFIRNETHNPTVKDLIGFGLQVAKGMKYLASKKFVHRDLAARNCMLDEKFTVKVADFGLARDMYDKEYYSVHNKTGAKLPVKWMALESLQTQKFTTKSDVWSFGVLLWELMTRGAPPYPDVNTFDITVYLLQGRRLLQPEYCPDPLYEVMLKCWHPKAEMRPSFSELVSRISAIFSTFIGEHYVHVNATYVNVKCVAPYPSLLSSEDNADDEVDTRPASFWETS
TEST SUMMARY: HGFR continuous-coupled spectrophotometric assay (tyrosine kinase activity on Met-2 substrate peptide)
Format: biochemical
ASSAY CONDITIONS: HGFR 50 nM, Met-2 peptide 0.5 mM, ATP 300 μM, 37° C., absorbance 340 nm; read-out: Ki
Where a name gives a salt, the structure may show the parent alone.
Below: a set of entries, each annotated with reported Ki.
QUANTITY: Ki (nM)

INSERT INTO assay_data (molecule, target_or_test_system, quantity, reported) VALUES
  ('CN(C)CC1(O)CCN(c2cnc3nnn(Cc4ccc5ncccc5c4)c3n2)C1 (stereo not drawn)', 'HGFR (Homo sapiens, UniProt P08581)', 'Ki', 31),
  ('CN(C)CCNC(=O)c1ccc(-c2cnc3nnn(Cc4ccc5ncccc5c4)c3n2)cc1', 'HGFR (Homo sapiens, UniProt P08581)', 'Ki', 3),
  ('c1cnc2ccc(Cn3nnc4ncc(NC5CCOC5)nc43)cc2c1 (stereo not drawn) [Example 145]', 'HGFR (Homo sapiens, UniProt P08581)', 'Ki', 5),
  ('c1cnc2ccc(Cn3nnc4ncc(-n5cccn5)nc43)cc2c1', 'HGFR (Homo sapiens, UniProt P08581)', 'Ki', 12),
  ('N[C@H]1CCCN(c2cnc3nnn(Cc4ccc5ncccc5c4)c3n2)C1 [Example 32, dihydrochloride]', 'HGFR (Homo sapiens, UniProt P08581)', 'Ki', 69),
  ('CC1(O)CCN(c2cnc3nnn(Cc4ccc5ncccc5c4)c3n2)CC1', 'HGFR (Homo sapiens, UniProt P08581)', 'Ki', 23),
  ('OCC1CCCN1c1cnc2nnn(Cc3ccc4ncccc4c3)c2n1 (stereo not drawn)', 'HGFR (Homo sapiens, UniProt P08581)', 'Ki', 39),
  ('CC(C)N(CCO)c1cnc2nnn(Cc3ccc4ncccc4c3)c2n1', 'HGFR (Homo sapiens, UniProt P08581)', 'Ki', 37),
  ('FC1(F)CCN(C2CCN(c3cnc4nnn(Cc5ccc6ncccc6c5)c4n3)C2)C1 (stereo not drawn)', 'HGFR (Homo sapiens, UniProt P08581)', 'Ki', 15),
  ('OCCn1cc(-c2cnc3nnn(Cc4ccc5ncncc5c4)c3n2)cn1', 'HGFR (Homo sapiens, UniProt P08581)', 'Ki', 61),
  ('CC(C)Nc1cnc2nnn(Cc3ccc4ncccc4c3)c2n1', 'HGFR (Homo sapiens, UniProt P08581)', 'Ki', 4),
  ('CC(C)(C(=O)O)n1cc(-c2cnc3nnn(Cc4ccc5ncccc5c4)c3n2)cn1', 'HGFR (Homo sapiens, UniProt P08581)', 'Ki', 27),
  ('CCC(CO)Nc1cnc2nnn(Cc3ccc4ncccc4c3)c2n1 (stereo not drawn)', 'HGFR (Homo sapiens, UniProt P08581)', 'Ki', 29),
  ('CN(C)[C@@H]1CCN(c2cnc3nnn(Cc4ccc5c(c4)CCO5)c3n2)C1', 'HGFR (Homo sapiens, UniProt P08581)', 'Ki', 45),
  ('COC(=O)C(C)(C)n1cc(-c2cnc3nnn(Cc4ccc5ncccc5c4)c3n2)cn1', 'HGFR (Homo sapiens, UniProt P08581)', 'Ki', 47),
  ('FC1(F)CCN([C@H]2CCN(c3cnc4nnn(Cc5ccc6ncccc6c5)c4n3)C2)CC1 [Example 207, TFA salt]', 'HGFR (Homo sapiens, UniProt P08581)', 'Ki', 23),
  ('c1cnc2ccc(Cn3nnc4ncc(N5CCCC5)nc43)cc2c1', 'HGFR (Homo sapiens, UniProt P08581)', 'Ki', 14),
  ('C[C@H]1CN(c2cnc3nnn(Cc4ccc5ncccc5c4)c3n2)C[C@]1(C)CO', 'HGFR (Homo sapiens, UniProt P08581)', 'Ki', 47);

====

TARGET OR TEST SYSTEM: HGFR (Homo sapiens)
Construct: purchased Upstate 14-526
TEST SUMMARY: HGFR continuous-coupled spectrophotometric assay (tyrosine kinase activity on Met-2 substrate peptide)
Type: biochemical
ASSAY CONDITIONS: HGFR 50 nM, Met-2 peptide 0.5 mM, ATP 300 μM, 37° C., absorbance 340 nm; read-out: Ki
pKi: −log10 of the molar value. Structures can show the parent of a compound that is named as a salt.
QUANTITY: pKi

INSERT INTO measurements (compound, target_or_test_system, quantity, reported) VALUES
  ('c1cnc2ccc(Cn3nnc4ncc(-c5cnn(CC6CCNCC6)c5)nc43)cc2c1', 'HGFR (Homo sapiens)', 'pKi', 7.16),
  ('NCCNc1cnc2nnn(Cc3ccc4ncccc4c3)c2n1', 'HGFR (Homo sapiens)', 'pKi', 7.57),
  ('COC(=O)Cn1cc(-c2cnc3nnn(Cc4ccc5ncccc5c4)c3n2)cn1', 'HGFR (Homo sapiens)', 'pKi', 7.74),
  ('O[C@@H]1CCN(c2cnc3nnn(Cc4ccc5ncccc5c4)c3n2)C[C@H]1O', 'HGFR (Homo sapiens)', 'pKi', 7.68),
  ('NC(=O)CNc1cnc2nnn(Cc3ccc4ncccc4c3)c2n1', 'HGFR (Homo sapiens)', 'pKi', 7.33),
  ('Cc1cn(-c2cnc3nnn(Cc4ccc5ncccc5c4)c3n2)cn1', 'HGFR (Homo sapiens)', 'pKi', 8.52),
  ('FC1(F)CCN([C@@H]2CCN(c3cnc4nnn(Cc5ccc6ncccc6c5)c4n3)C2)CC1 [Example 208, TFA salt]', 'HGFR (Homo sapiens)', 'pKi', 6.81),
  ('CC[C@H](CO)Nc1cnc2nnn(Cc3ccc4ncccc4c3)c2n1', 'HGFR (Homo sapiens)', 'pKi', 8.00),
  ('CC1(CNc2cnc3nnn(Cc4ccc5ncccc5c4)c3n2)COC1', 'HGFR (Homo sapiens)', 'pKi', 8.15),
  ('C[C@H](O)CNc1cnc2nnn(Cc3ccc4ncccc4c3)c2n1', 'HGFR (Homo sapiens)', 'pKi', 7.96),
  ('N[C@@H]1CCN(c2cnc3nnn(Cc4ccc5c(c4)CCO5)c3n2)C1', 'HGFR (Homo sapiens)', 'pKi', 7.10),
  ('OCC1CCN(c2cnc3nnn(Cc4ccc5ncccc5c4)c3n2)CC1', 'HGFR (Homo sapiens)', 'pKi', 7.68),
  ('c1cnc2ccc(Cn3nnc4ncc(N5CCc6[nH]ncc6C5)nc43)cc2c1', 'HGFR (Homo sapiens)', 'pKi', 7.89),
  ('FC1CCN(C2CCN(c3cnc4nnn(Cc5ccc6ncccc6c5)c4n3)C2)CC1 (stereo not drawn) [Example 191]', 'HGFR (Homo sapiens)', 'pKi', 6.85),
  ('O=C(O)c1cc(F)cc(-c2cnc3nnn(Cc4ccc5ncccc5c4)c3n2)c1', 'HGFR (Homo sapiens)', 'pKi', 7.92),
  ('CN1CCN(c2cnc3nnn(Cc4ccc5ncccc5c4)c3n2)CC1=O', 'HGFR (Homo sapiens)', 'pKi', 7.39),
  ('CC(c1ccc2ncccc2c1)n1nnc2ncc(Br)nc21 (stereo in doubt)', 'HGFR (Homo sapiens)', 'pKi', 7.38),
  ('c1cnc2ccc(Cn3nnc4ncc(N5CCC5)nc43)cc2c1', 'HGFR (Homo sapiens)', 'pKi', 7.59);

====

TARGET OR TEST SYSTEM: HGFR (Homo sapiens, UniProt P08581)
Construct: purchased Upstate 14-526
TEST SUMMARY: HGFR continuous-coupled spectrophotometric assay (tyrosine kinase activity on Met-2 substrate peptide)
Assay type: biochemical
ASSAY CONDITIONS: HGFR 50 nM, Met-2 peptide 0.5 mM, ATP 300 μM, 37° C., absorbance 340 nm; read-out: Ki
QUANTITY: log10 of Ki (log10 of the value in nM)

INSERT INTO measurements (compound, reported) VALUES
  ('CC(C)(C)OC(=O)N1CCN(c2cnc3nnn(Cc4ccc5ncccc5c4)c3n2)CC1', 2.26),
  ('CCOCC(O)CNc1cnc2nnn(Cc3ccc4ncccc4c3)c2n1 (stereo not drawn)', 0.90),
  ('COc1cnc2nnn(Cc3ccc4ncccc4c3)c2n1', 2.03),
  ('N#CC1CCN(C2CCN(c3cnc4nnn(Cc5ccc6ncccc6c5)c4n3)C2)CC1 (stereo in doubt)', 1.48),
  ('c1cnc2ccc(Cn3nnc4ncc(NC5CCOCC5)nc43)cc2c1', 0.95),
  ('CC(C)(C)OC(=O)NC1CCN(c2cnc3nnn(Cc4ccc5ncccc5c4)c3n2)CC1', 1.52),
  ('c1cnc2ccc(Cn3nnc4ncc(N5CCC(CCn6cccn6)CC5)nc43)cc2c1', 1.20),
  ('CC(c1ccc2c(c1)OCCO2)n1nnc2ncc(N3CC[C@@H](N)C3)nc21 (stereo partly drawn)', 2.25),
  ('O=C1CCN(c2cnc3nnn(Cc4ccc5ncccc5c4)c3n2)C1', 1.59);
